These measurements were taken from patent US8389500B2.

# STUDY_TARGET: wild-type human cardiac sodium channel, hNav1.5 (late sodium current) (Homo sapiens)
# Construct: host or cells: HEK293
# TEST_DESCRIPTION: Late INa screening assay (PatchXpress whole cell patch clamp)
# Assay type: cell-based
# EXPERIMENTAL_PARAMETERS: 10 μM test compound; HEK293 hNav1.5; late INa generated with 10 μM Tefluthrin (some experiments 50 nM ATX II); read-out: Late INa % blk (10 μM test cmpd)
QUANTITY_NAME: inhibition at 10 µM (%)
Numbers only, in %.

Can you give me inhibition at 10 µM for all of these, one by one?
1. Cc1cc(N([C@@H](C)C(=O)O)S(C)(=O)=O)ccc1-c1ccc(Oc2ccccc2)cc1
2. CS(=O)(=O)N(CC(=O)O)c1ccc(-c2ccc(Cl)c(F)c2)c(Cl)c1
3. CS(=O)(=O)Nc1ccc(-c2ccc(F)c(Cl)c2)c(Cl)c1
4. CS(=O)(=O)Nc1ccc(-c2ccc(C(F)(F)F)cc2)c(C(F)(F)F)c1
5. COc1cc(NS(C)(=O)=O)ccc1-c1ccccc1OC(F)(F)F
6. CS(=O)(=O)Nc1ccc(-c2ccc(Oc3ccc(F)cc3)cc2)cc1Cl
7. CS(=O)(=O)N(CCN1CCOCC1)c1ccc(-c2ccc(Cl)c(F)c2)c(Cl)c1
8. COc1cc(NS(C)(=O)=O)ccc1-c1ccc(F)cc1

// result
1. 5.8
2. -2.4
3. 71
4. 54.1
5. 47.6
6. 58
7. 20.6
8. 17.1

// query Quote inhibition at 10 µM reported for CCOC(=O)c1ccc(CN(c2ccc(-c3ccc(OC(C)C)cc3)c(C)c2)S(C)(=O)=O)cc1 please.
// result 17.1

----------
# STUDY_TARGET: wild-type human cardiac sodium channel, hNav1.5 (late sodium current) (Homo sapiens, UniProt Q14524)
# Construct: host or cells: HEK293
# Sequence (Q14524 whole entry): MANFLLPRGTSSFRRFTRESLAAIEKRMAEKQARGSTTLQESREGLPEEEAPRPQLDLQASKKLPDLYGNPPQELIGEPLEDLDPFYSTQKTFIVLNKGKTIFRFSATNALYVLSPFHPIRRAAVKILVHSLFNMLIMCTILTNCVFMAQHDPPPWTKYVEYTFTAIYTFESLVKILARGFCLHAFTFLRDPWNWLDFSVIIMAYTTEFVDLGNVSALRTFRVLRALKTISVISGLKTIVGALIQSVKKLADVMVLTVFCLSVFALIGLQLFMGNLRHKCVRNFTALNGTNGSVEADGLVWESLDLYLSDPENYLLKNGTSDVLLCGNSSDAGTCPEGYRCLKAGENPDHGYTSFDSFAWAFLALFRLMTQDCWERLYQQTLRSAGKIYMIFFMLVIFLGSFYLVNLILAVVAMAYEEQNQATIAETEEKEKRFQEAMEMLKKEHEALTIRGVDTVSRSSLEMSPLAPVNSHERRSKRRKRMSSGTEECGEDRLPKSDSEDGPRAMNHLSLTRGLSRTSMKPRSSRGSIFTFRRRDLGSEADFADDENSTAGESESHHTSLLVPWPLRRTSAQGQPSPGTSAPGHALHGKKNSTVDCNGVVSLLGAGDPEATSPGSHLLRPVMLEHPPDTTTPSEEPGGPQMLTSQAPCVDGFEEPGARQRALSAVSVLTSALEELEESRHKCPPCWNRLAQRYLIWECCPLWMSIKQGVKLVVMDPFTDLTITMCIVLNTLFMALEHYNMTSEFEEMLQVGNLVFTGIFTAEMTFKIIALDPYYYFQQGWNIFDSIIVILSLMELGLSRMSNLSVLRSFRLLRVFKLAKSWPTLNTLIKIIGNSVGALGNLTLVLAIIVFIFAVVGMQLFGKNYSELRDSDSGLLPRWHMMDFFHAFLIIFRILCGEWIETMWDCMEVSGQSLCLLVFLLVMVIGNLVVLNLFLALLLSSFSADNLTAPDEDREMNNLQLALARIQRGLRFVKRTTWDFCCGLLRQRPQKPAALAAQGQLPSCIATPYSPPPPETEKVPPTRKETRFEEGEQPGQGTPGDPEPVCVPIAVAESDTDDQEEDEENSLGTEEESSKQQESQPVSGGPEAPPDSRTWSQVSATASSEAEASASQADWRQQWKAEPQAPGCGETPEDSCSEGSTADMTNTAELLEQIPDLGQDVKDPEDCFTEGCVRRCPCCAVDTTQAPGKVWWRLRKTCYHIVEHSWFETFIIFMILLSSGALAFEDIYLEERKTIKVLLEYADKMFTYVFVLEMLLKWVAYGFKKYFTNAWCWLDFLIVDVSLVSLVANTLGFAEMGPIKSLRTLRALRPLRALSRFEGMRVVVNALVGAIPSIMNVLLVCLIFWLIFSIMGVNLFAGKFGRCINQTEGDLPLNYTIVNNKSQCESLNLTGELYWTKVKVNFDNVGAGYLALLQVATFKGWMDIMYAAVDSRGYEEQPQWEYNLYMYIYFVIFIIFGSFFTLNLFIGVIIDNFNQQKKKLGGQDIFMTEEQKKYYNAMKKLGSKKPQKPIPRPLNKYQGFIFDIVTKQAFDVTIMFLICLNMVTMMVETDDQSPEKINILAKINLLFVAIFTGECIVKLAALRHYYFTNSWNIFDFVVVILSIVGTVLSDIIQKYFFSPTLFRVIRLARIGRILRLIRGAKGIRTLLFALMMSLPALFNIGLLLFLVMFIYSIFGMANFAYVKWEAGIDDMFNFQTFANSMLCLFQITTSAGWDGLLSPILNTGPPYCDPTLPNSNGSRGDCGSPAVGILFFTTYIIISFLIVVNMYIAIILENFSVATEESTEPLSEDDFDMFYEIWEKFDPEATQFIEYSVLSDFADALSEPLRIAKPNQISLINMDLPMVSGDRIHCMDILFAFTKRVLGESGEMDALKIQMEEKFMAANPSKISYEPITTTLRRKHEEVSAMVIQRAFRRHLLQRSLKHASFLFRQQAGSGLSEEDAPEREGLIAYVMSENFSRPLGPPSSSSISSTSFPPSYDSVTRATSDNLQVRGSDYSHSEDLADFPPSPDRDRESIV
# TEST_DESCRIPTION: Late INa screening assay (PatchXpress whole cell patch clamp)
# Type: cell-based
# EXPERIMENTAL_PARAMETERS: 1 μM test compound; HEK293 hNav1.5; late INa generated with 10 μM Tefluthrin (some experiments 50 nM ATX II); read-out: Late INa % blk (1 μM test cmpd)
# Method: The late sodium current (Late INa) and peak sodium current (Peak INa) assays are performed on an automated electrophysiology platform, PatchXpress 7000A (MDS Analytical Technologies, Sunnyvale, Calif.), which uses the whole cell patch clamp technique to measure currents through the cell membrane of up to 16 cells at a time. […]
Param threshold (30%) applies to inhibition at 1 µM; output MET when value >= threshold, NOT MET when value < threshold.

Illustrative cases are given below, each with its answer.
| STRUCTURE_NOTATION | GROUP_LABEL |
| --- | --- |
| Cc1cc(NS(C)(=O)=O)ccc1-c1cccc(OC(F)(F)F)c1 | MET |
| COc1cc(NS(C)(=O)=O)ccc1-c1ccc(Cl)c(F)c1 | NOT MET |
| CS(=O)(=O)N(CCN1CCCCC1)c1ccc(-c2ccc(Cl)c(F)c2)c(Cl)c1 | NOT MET |
| CS(=O)(=O)Nc1ccc(-c2cccc(OC(F)(F)F)c2)c(Cl)c1 | MET |
| CS(=O)(=O)Nc1ccc(-c2ccc(Cl)cc2)c(Cl)c1 | NOT MET |
| CS(=O)(=O)Nc1ccc(-c2cc(C(F)(F)F)cc(C(F)(F)F)c2)c(Cl)c1 | NOT MET |
| O=S(=O)(Nc1ccc(-c2cccc(OC(F)(F)F)c2)c(Cl)c1)C1CC1 | MET |
| CS(=O)(=O)Nc1ccc(-c2ccc(Oc3ccccc3)cc2)cc1Cl | NOT MET |
| CS(=O)(=O)Nc1ccc(-c2ccc(Cl)c(C(F)(F)F)c2)c(Cl)c1 | MET |
| CS(=O)(=O)Nc1ccc(-c2cccc(OC(F)(F)F)c2)c(F)c1 | NOT MET |

// query Form field: inhibition at 1 µM at least 30%? Entry: CS(=O)(=O)Nc1ccc(-c2ccc(Cl)c(F)c2)c(Cl)c1
// result MET

// query Has CCS(=O)(=O)Nc1ccc(-c2ccc(Cl)c(F)c2)c(Cl)c1 a recorded inhibition at 1 µM greater than or equal to 30%?
// result MET

// query Does the reported inhibition at 1 µM for Cc1cc(-c2ccc(Oc3ccccc3)cc2)c(Cl)cc1NS(C)(=O)=O fall at or above the 30% mark?
// result MET

// query Threshold query (inhibition at 1 µM >= 30%) on CS(=O)(=O)Nc1ccc(-c2ccc(F)c(Cl)c2)c(Cl)c1
// result NOT MET
